All values here come from PubChem BioAssay (Tox21).

- target desc: Thyrotropin-releasing hormone receptor (Homo sapiens)
- assay name: qHTS assay to identify small molecule agonists of the thyrotropin-releasing hormone receptor (TRHR) signaling pathway (AID 1346891);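 note: HEK293 cells expressing TRHR with calcium dye readout; % is set by controls: 0 for no effect and ±100 for the full control effect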
- particulars: TRHR-HEK293 calcium fluorescence, agonist mode; series mostly up to 57.6 µM
Activity calls are given as the source filed them. Calls come from the whole dose curve.

{"columns": ["compound", "activation"],
 "data": [
  ["CCCCS(=O)(=O)N[C@@H](Cc1ccc(OCCCCC2CCNCC2)cc1)C(=O)O", "inactive"],
  ["CC(CO)(CO)[N+](=O)[O-]", "inactive"],
  ["CCOC(=O)COc1cc(-n2ncc(C(F)(F)F)c(C)c2=O)c(F)cc1Cl", "inactive"],
  ["CC(C)(C#N)Nc1nc(Cl)nc(NC2CC2)n1", "inactive"],
  ["NC(CCC(=O)O)C(=O)O (stereo not drawn)", "inactive"],
  ["CC(C)(C)C(=O)Oc1ccc(S(=O)(=O)Nc2ccccc2C(=O)NCC(=O)O)cc1", "inactive"],
  ["CCCCOCCOC(=O)CCCCCCCCC(=O)OCCOCCCC", "inactive"],
  ["N[C@H](C(=O)O)[C@@H](O)c1ccc(O)c(O)c1", "inactive"],
  ["O=[N+]([O-])c1cncn1CCN1CCOCC1", "inactive"],
  ["COc1cc(-c2ccc(=O)[nH]n2)ccc1OC(F)F", "inactive"],
  ["O=C(O)CNC(=O)c1ccccc1", "inactive"],
  ["CCCCCCC#CC(=O)OC", "inactive"],
  ["CC(C)CC(C)(N)C#N (stereo not drawn)", "inactive"]
]}

###

- assay name: A CellTox Green Cytotoxicity Assay to monitor cytotoxicity in HEK293 cells - 0 hour (AID 1224869); note: % is set by controls: 0 for no effect and ±100 for the full control effect; nearly all actives have a fitted effect of over 50% in size
- particulars: CellTox Green fluorescence; series mostly up to 76.8 µM
The source made the active and inactive calls. The call rests on the fitted dose curve; in most records, active means well fitted activation curve with a large enough effect in the repeat runs; inconclusive means weak or mixed curves; inactive means flat fitted curve, though single readings scatter.
quantity name: cytotoxicity

{"columns": ["molecule", "quantity name", "result"],
 "data": [
  ["CCN[C@@H]1C[C@H](N)[C@@H](OC2OC(CN)=CCC2N)[C@H](O)[C@H]1O[C@H]1OC[C@](C)(O)[C@H](NC)[C@H]1O (some centres not stated)", "cytotoxicity", "3.58% [at 0.29 µM] (inactive)"],
  ["CC(N)C12CC3CC(CC(C3)C1)C2 (configuration not stated)", "cytotoxicity", "inactive"],
  ["C=CN1CCCCCC1=O", "cytotoxicity", "inactive"],
  ["O=C(CO)[C@@H](O)[C@H](O)[C@H](O)CO", "cytotoxicity", "inactive"],
  ["CC(=O)c1ccccc1[N+](=O)[O-]", "cytotoxicity", "inactive"],
  ["CC12CCC(C(=O)C1=O)C2(C)C (configuration not stated)", "cytotoxicity", "inactive"],
  ["CC(C#N)(CCC(=O)O)N=NC(C)(C#N)CCC(=O)O (configuration not stated)", "cytotoxicity", "inactive"],
  ["O=C(O)CC(C(=O)O)S(=O)(=O)O (configuration not stated)", "cytotoxicity", "inactive"],
  ["N[C@@H](CCC(=O)O)C(=O)O", "cytotoxicity", "inactive"],
  ["CC[N+](CC)(CC)CCOc1cccc(OCC[N+](CC)(CC)CC)c1OCC[N+](CC)(CC)CC", "cytotoxicity", "inactive"],
  ["[O-][n+]1cccc(CO)c1", "cytotoxicity", "inactive"],
  ["CN1C(C)(C)CC(O)CC1(C)C", "cytotoxicity", "inactive"],
  ["C=C(C)C(=O)OCC(O)CO (configuration not stated)", "cytotoxicity", "inactive"],
  ["CC(C)CCCO", "cytotoxicity", "inactive"],
  ["CCCC(=O)O[C@]1(C(=O)CC)CC[C@H]2[C@@H]3CCC4=CC(=O)CC[C@]4(C)[C@H]3[C@@H](O)C[C@@]21C", "cytotoxicity", "inactive"],
  ["C1CCC2=NCCCN2CC1", "cytotoxicity", "inactive"],
  ["CCCC[N+](C)(CCCC)CCCC", "cytotoxicity", "inactive"],
  ["CCOC(=O)C(=O)CCCCCCl", "cytotoxicity", "inactive"],
  ["Nc1c2c(nc3c1CCC3)CCCC2", "cytotoxicity", "inactive"],
  ["NO", "cytotoxicity", "inactive"],
  ["C[N+]1(C)CCCC(OC(=O)C(O)(c2ccccc2)c2ccccc2)C1 (configuration not stated)", "cytotoxicity", "inactive"],
  ["C[N+]1(CC2COC(c3ccccc3)(c3ccccc3)O2)CCCCC1 (configuration not stated)", "cytotoxicity", "-9.06% [at 15.8 µM] (inactive)"],
  ["O=C1c2ccccc2C(=O)c2cc(O)ccc21", "cytotoxicity", "inactive"],
  ["CNC(=O)Nc1ccc(Cl)c(Cl)c1", "cytotoxicity", "inactive"],
  ["OCCCCCO", "cytotoxicity", "inactive"],
  ["CC(=O)N[C@H]1[C@H]([C@H](O)[C@H](O)CO)OC(C(=O)O)=C[C@@H]1N=C(N)N", "cytotoxicity", "inactive"],
  ["CC1=CCC(O)(C(C)C)CC1 (configuration not stated)", "cytotoxicity", "inactive"]
]}

###

- target desc: Estrogen receptor (Homo sapiens)
- assay name: qHTS assay to identify small molecule agonists of the estrogen receptor alpha (ER-alpha) signaling pathway using the BG1 cell line (AID 743079); note: nearly all actives have a fitted effect of over 20% in size; for activation: % is set by controls: 0 for no effect and ±100 for the full control effect
- particulars: BG1Luc4E2 cells, ERE-luciferase agonist, 22 h; series mostly up to 70.3 µM
Records with an inconclusive call do not appear. Active and inactive are the calls of the source. The call rests on the fitted dose curve; in most records, active means well fitted activation curve with a large enough effect in the repeat runs; inconclusive means weak or mixed curves, or effect the other way; inactive means no such curve, though single readings can be large or run the other way.
Possible outcomes: label 1 = active, label 0 = inactive

{"columns": ["compound", "group"],
 "data": [
  ["O=C(c1ccccc1O)c1ccccc1O", "label 0"],
  ["OCCCCCO", "label 1"],
  ["CC(COc1ccccc1)NN (stereo not drawn)", "label 0"],
  ["CC[C@H]1OC(=O)[C@H](C)[C@@H](O[C@H]2C[C@@](C)(OC)[C@@H](O)[C@H](C)O2)[C@H](C)[C@@H](O[C@@H]2O[C@H](C)C[C@H](N(C)C)[C@H]2O)[C@](C)(OC)C[C@@H](C)C(=O)[C@H](C)[C@@H](O)[C@]1(C)O", "label 0"],
  ["Cc1cccc(C)c1NC(=O)CC12CCCN1CCC2", "label 0"],
  ["CC(C)COC(=O)c1ccc(N)cc1", "label 1"],
  ["C[N+](C)(C)CCCCCCCCCC[N+](C)(C)C", "label 0"],
  ["CCN[C@H]1C[C@H](C)S(=O)(=O)c2sc(S(N)(=O)=O)cc21", "label 0"],
  ["Cc1ncc(COP(=O)(O)O)c(C=O)c1O", "label 0"],
  ["O=C(O)CC(C(=O)O)S(=O)(=O)O (stereo not drawn)", "label 0"],
  ["CC1=NS(=O)(=O)c2cc(Cl)ccc2N1", "label 0"],
  ["CN1C(C)(C)CC(O)CC1(C)C", "label 0"],
  ["O=C(O)c1cn(C2CC2)c2cc(N3CCNCC3)c(F)cc2c1=O", "label 0"]
]}

###

- assay name: qHTS assay to test for compound auto fluorescence at 535 nm (green) in HepG2 cell free culture (AID 720686); note: % is set by controls: 0 for no effect and ±100 for the full control effect
- particulars: Cell-free medium, green autofluorescence 485/535 nm; series mostly up to 91.3 µM
Calls of active or inactive are those of the source. Calls follow the shape of the dose curve; as a rule, active = well fitted curve in the direction sought with a large enough effect in the repeat runs; inconclusive = weak or mixed curves; inactive = flat fitted curve, though single readings scatter.
quantity name: fluorescence, % of fluorescein control

{"columns": ["molecule", "quantity name", "result"],
 "data": [
  ["CC(C)[C@H]1CC[C@@H](C)CC1=O", "fluorescence, % of fluorescein control", "inactive"],
  ["CC1=NN(c2cc(S(=O)(=O)O)ccc2Cl)C(=O)C1N=Nc1ccccc1 (configuration not stated)", "fluorescence, % of fluorescein control", "inactive"],
  ["c1ccc(Cc2ccccc2)cc1", "fluorescence, % of fluorescein control", "inactive"],
  ["CCCCCC(=O)OCCc1ccccc1", "fluorescence, % of fluorescein control", "inactive"],
  ["CC1=CCC(O)(C(C)C)CC1 (configuration not stated)", "fluorescence, % of fluorescein control", "inactive"],
  ["CN1CC(=O)N/C1=N/C(=O)Nc1cccc(Cl)c1", "fluorescence, % of fluorescein control", "inactive"],
  ["c1ccc2sc(SN3CCOCC3)nc2c1", "fluorescence, % of fluorescein control", "inactive"],
  ["COc1ccnc(CS(=O)c2nc3cc(OC(F)F)ccc3[nH]2)c1OC (configuration not stated)", "fluorescence, % of fluorescein control", "inactive"],
  ["CCN(CC#N)c1cccc(C)c1", "fluorescence, % of fluorescein control", "inactive"],
  ["O=S(=O)(O)c1cccc(S(=O)(=O)O)c1", "fluorescence, % of fluorescein control", "inactive"],
  ["NS(=O)(=O)Cc1noc2ccccc12", "fluorescence, % of fluorescein control", "inactive"],
  ["CCCCN(CCC(=O)OCC)C(C)=O", "fluorescence, % of fluorescein control", "inactive"],
  ["C[C@H]1[C@H](NC(=O)/C(=N/OC(C)(C)C(=O)O)c2csc(N)n2)C(=O)N1S(=O)(=O)O (stereo in doubt)", "fluorescence, % of fluorescein control", "0.102% [at 18.6 µM] (inactive)"],
  ["CCOC(=O)c1ccccc1", "fluorescence, % of fluorescein control", "inactive"],
  ["NCCCC[C@H](N[C@@H](CCc1ccccc1)C(=O)O)C(=O)N1CCC[C@H]1C(=O)O", "fluorescence, % of fluorescein control", "-0.127% [at 18.6 µM] (inactive)"],
  ["CC(C)CCCO", "fluorescence, % of fluorescein control", "inactive"],
  ["NC(CCC(=O)O)C(=O)O (configuration not stated)", "fluorescence, % of fluorescein control", "inactive"],
  ["COc1cc(C)nc(-n2nc(C)cc2OC)n1", "fluorescence, % of fluorescein control", "-0.0352% [at 18.6 µM] (inactive)"],
  ["CC1=NS(=O)(=O)c2cc(Cl)ccc2N1", "fluorescence, % of fluorescein control", "inactive"],
  ["[Ca+2]", "fluorescence, % of fluorescein control", "inactive"],
  ["COCCOC[C@H](CC1(C(=O)NC2CCC(C(=O)O)CC2)CCCC1)C(=O)Oc1ccc2c(c1)CCC2 (some centres not stated)", "fluorescence, % of fluorescein control", "inactive"],
  ["Cc1cccc(C)c1NC(=O)CC12CCCN1CCC2", "fluorescence, % of fluorescein control", "inactive"],
  ["CNC(=O)Nc1ccc(Cl)c(Cl)c1", "fluorescence, % of fluorescein control", "inactive"],
  ["CCC(C)(CN(C)C)OC(=O)c1ccccc1 (configuration not stated)", "fluorescence, % of fluorescein control", "0.0276% [at 18.6 µM] (inactive)"],
  ["COc1ccc2cc1Oc1cc3c(cc1OC)CC[N+](C)(C)[C@H]3Cc1ccc(cc1)Oc1c(OC)c(OC)cc3c1[C@@H](C2)[N+](C)(C)CC3", "fluorescence, % of fluorescein control", "inactive"],
  ["C=C(C)C(=O)OCC1CCCO1 (configuration not stated)", "fluorescence, % of fluorescein control", "inactive"],
  ["CCCCN1C=CN(C)C1", "fluorescence, % of fluorescein control", "-0.069% [at 18.6 µM] (inactive)"]
]}
